# TARGET: UniProt O42275
# Sequence (O42275 24-633 limits assumed): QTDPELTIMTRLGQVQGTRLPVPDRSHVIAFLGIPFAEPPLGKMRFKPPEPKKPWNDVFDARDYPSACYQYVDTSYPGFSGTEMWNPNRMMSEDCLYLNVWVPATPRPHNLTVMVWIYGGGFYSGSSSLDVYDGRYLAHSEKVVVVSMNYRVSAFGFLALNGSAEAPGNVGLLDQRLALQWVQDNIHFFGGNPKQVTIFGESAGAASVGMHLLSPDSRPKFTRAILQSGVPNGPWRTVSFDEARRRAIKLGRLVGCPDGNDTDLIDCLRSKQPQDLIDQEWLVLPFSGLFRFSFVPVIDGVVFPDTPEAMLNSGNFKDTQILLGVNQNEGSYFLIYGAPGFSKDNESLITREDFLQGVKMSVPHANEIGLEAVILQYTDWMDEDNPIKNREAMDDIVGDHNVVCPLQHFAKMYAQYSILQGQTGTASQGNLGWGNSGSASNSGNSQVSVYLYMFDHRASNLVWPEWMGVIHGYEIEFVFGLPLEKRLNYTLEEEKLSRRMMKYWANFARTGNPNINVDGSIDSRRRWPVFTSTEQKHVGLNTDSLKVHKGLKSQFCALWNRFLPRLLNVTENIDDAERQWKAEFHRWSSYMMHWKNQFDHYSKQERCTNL
# TEST_NAME: Inhibition of Electrophorus electricus AChE at 100 uM using acetylthiocholine iodide as substrate preincubated for 15 mins followed by substrate addition and measured after 4 mins by Ellman's method
# RUN_PARAMETERS: time 19.0 min
Please mark Y if the recorded inhibition is equal to or greater than 20%, and N if it falls below.

hey, is inhibition for this one >= 20%? "COc1ccc(C(=O)N/N=C/c2ccc(OC(=O)N(C)C)cc2)cc1OC"
Y

hey, is inhibition for this one >= 20%? "COc1ccc(C(=O)N/N=C/c2ccccc2OC(=O)N(C)C)cc1OC"
Y

hey, is inhibition for this one >= 20%? "CN(C)C(=O)Oc1ccc(/C=N/NC(=O)c2ccc(O)cc2)cc1"
N

hey, is inhibition for this one >= 20%? "COc1ccc(C(=O)N/N=C/c2ccc(OC(=O)N(C)C)c(OC)c2)cc1OC"
Y

hey, is inhibition for this one >= 20%? "COc1cc(/C=N/NC(=O)c2ccc(O)cc2)ccc1OC(=O)N(C)C"
Y

hey, is inhibition for this one >= 20%? "COc1cc(C(=O)N/N=C/c2ccccc2OC(=O)N(C)C)ccc1O"
Y

hey, is inhibition for this one >= 20%? "CN(C)C(=O)Oc1ccc(/C=N/NC(=O)c2cccc(O)c2)cc1"
N

hey, is inhibition for this one >= 20%? "CN(C)C(=O)Oc1ccccc1/C=N/NC(=O)c1cccc(O)c1"
N

hey, is inhibition for this one >= 20%? "CN(C)C(=O)Oc1ccccc1/C=N/NC(=O)c1ccc(O)cc1"
N

hey, is inhibition for this one >= 20%? "COc1cc(C(=O)N/N=C/c2ccc(OC(=O)N(C)C)c(OC)c2)ccc1O"
Y

###

# TARGET: Cholinesterase (Equus caballus) (UniProt P81908)
# Sequence (P81908 whole entry): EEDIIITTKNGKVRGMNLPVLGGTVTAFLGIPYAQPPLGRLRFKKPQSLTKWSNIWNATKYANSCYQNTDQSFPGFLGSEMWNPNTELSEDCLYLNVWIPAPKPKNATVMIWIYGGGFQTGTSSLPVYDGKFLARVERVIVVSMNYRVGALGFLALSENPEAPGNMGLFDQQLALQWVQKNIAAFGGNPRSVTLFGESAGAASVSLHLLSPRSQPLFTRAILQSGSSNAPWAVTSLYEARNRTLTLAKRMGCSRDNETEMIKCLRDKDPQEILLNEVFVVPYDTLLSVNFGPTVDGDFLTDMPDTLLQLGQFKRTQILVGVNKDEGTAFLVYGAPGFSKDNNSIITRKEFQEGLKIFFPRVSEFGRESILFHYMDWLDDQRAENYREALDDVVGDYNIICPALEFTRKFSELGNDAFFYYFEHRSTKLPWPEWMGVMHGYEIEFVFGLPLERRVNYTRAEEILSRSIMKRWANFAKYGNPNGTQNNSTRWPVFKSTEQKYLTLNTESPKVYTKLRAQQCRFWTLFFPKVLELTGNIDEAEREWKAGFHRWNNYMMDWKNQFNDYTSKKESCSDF
# TEST_NAME: Inhibition of equine serum BuChE at 10 uM using butyrylthiocholine chloride as substrate preincubated for 15 mins followed by substrate addition and measured after 4 mins by Ellman's method
# Assay type: cell-free
# RUN_PARAMETERS: time 19.0 min
Please mark MET if the recorded inhibition is equal to or greater than 60%, and NOT MET if it falls below.

hey, is inhibition for this one >= 60%? "CN(C)C(=O)Oc1ccccc1/C=N/NC(=O)c1cccc(O)c1"
MET

hey, is inhibition for this one >= 60%? "COc1cc(C(=O)N/N=C/c2ccc(OC(=O)N(C)C)cc2)ccc1O"
NOT MET

hey, is inhibition for this one >= 60%? "COc1cc(C(=O)N/N=C/c2ccc(OC(=O)N(C)C)c(OC)c2)ccc1O"
NOT MET

hey, is inhibition for this one >= 60%? "COc1cc(C(=O)N/N=C/c2ccccc2OC(=O)N(C)C)ccc1O"
MET

hey, is inhibition for this one >= 60%? "COc1ccc(C(=O)N/N=C/c2ccc(OC(=O)N(C)C)cc2)cc1OC"
NOT MET

hey, is inhibition for this one >= 60%? "COc1ccc(C(=O)N/N=C/c2ccccc2OC(=O)N(C)C)cc1OC"
MET

hey, is inhibition for this one >= 60%? "CN(C)C(=O)Oc1ccccc1/C=N/NC(=O)c1ccc(O)cc1"
MET

hey, is inhibition for this one >= 60%? "COc1cc(/C=N/NC(=O)c2cccc(O)c2)ccc1OC(=O)N(C)C"
NOT MET

hey, is inhibition for this one >= 60%? "COc1cc(/C=N/NC(=O)c2ccc(O)cc2)ccc1OC(=O)N(C)C"
MET

hey, is inhibition for this one >= 60%? "CN(C)C(=O)Oc1ccc(/C=N/NC(=O)c2cccc(O)c2)cc1"
NOT MET

hey, is inhibition for this one >= 60%? "CN(C)C(=O)Oc1ccc(/C=N/NC(=O)c2ccc(O)cc2)cc1"
NOT MET

hey, is inhibition for this one >= 60%? "COc1ccc(C(=O)N/N=C/c2ccc(OC(=O)N(C)C)c(OC)c2)cc1OC"
MET
